Origin of measurements: patent US20230134571A1

Assignment: determine reported IC80 (µg/ml) with constrains for the given binders.
# Target desc: HIV Env, isolate ZM53M.PB12 (HIV)
# Test protocol: cell-based or functional assay
Numbers only here, please. The scale is µg/mL.

Input ePGDM9 (antibody, V domains shown) VH: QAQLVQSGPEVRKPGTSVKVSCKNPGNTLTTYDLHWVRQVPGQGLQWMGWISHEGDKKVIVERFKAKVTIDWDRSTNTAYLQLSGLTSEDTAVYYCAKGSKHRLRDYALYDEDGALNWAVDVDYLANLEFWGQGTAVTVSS VL: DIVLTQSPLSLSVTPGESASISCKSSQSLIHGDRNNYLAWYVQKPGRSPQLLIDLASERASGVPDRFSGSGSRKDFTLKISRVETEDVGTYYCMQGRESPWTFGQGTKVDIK . Output IC80 (µg/ml) with constrains: 0.026

Input PGDM1400 (antibody, V domains shown) VH: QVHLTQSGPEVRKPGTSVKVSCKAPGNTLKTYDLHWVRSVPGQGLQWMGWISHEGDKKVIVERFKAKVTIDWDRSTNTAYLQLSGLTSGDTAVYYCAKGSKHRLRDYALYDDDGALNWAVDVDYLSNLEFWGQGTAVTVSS VL: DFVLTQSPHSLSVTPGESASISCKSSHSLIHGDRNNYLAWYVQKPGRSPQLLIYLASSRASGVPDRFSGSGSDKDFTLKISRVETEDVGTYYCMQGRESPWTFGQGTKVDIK . Output IC80 (µg/ml) with constrains: 0.034

Input ePGDM5 (antibody, V domains shown) VH: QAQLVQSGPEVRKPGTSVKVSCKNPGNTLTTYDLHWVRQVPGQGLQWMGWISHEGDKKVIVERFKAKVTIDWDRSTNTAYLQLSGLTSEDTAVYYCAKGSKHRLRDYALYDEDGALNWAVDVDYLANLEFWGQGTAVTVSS VL: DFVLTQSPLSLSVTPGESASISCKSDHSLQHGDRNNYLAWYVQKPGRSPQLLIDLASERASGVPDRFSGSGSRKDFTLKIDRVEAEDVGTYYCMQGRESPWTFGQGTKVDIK . Output IC80 (µg/ml) with constrains: 0.022

Input ePGDM13 (antibody, V domains shown) VH: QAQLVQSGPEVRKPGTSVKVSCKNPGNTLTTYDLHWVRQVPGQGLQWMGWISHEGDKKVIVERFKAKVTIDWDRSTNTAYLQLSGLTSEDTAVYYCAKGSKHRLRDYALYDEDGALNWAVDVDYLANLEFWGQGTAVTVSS VL: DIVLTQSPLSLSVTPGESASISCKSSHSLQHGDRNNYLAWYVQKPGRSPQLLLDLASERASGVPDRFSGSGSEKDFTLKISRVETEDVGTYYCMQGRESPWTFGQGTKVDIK . Output IC80 (µg/ml) with constrains: 0.022
